- tested-target: dengue type 4 virus (DENV-4), strain 814669, virions (dengue type 4 virus, UniProt P09866 280-774; P09866 114-279)
- test: ELISA, virion-coated plate, Fab from ~140 µg/ml
ELISA titer of Fab binding overview

Guide cases for ELISA titer of Fab binding, answers given:
chimpanzee Fab 1A5 (Fab, V domains shown) VH: EVQLLESGGGLVQPGGSRRLSCAASGFTISDNVMHWVRQAPGKGLEWVALIYSADTTHYADSVKGRFTISRDNSKNTLYLQMDSLRPEDTAVYYCAREYCTGDTCFAHFDYWGQGTLVSVSS VL: ELQMTQSPSSVSASVGDTVTIACRASQSITNYLSWYQQKPGKAPKLLIYHASTLQSGIPSRFSGSGSGTDFTLTISSLQPDDFATYYCHYGYGTHTFGQGTKLEIKR: 3.8 log10 of reciprocal dilution
chimpanzee Fab 1B2 (Fab, V domains shown) VH: EVQLLESGPGLVKPSQTLSLTCAVSGGSITSDHYFWSWMRQAPGRGLEWIGYISYRGTTYYNPSLKSRVTMSVTAAKNTLYLQMDGLRPEDTAVYYCARASVTAGMPAAGTLDHWGQGTLVTVSS VL: ELQMTQSPSSLSASVGDRVTITCRASQGISSELNWYQQKPGKAPKLLIYDASSLESGVPSRFSGSGSGTDFTLTISSLQPEDFATYYCQHFNSFPWTFGQGTKLEIKR: 3.8 log10 of reciprocal dilution

Entry chimpanzee Fab 3A2 (Fab, V domains shown) VH: VQLLEQSGGGLVQPGGSRRLSCAVSGFTISDNVMHWVRQAPGKGLEWVALIYSADTTHYADSVKGRFTISRDNSKNTLYLQMDSLRPEDTAVYYCAREYCTGGTCFAHFDYWGQGTLVTVSS VL: ELTQSPSSVSASVGDTVTIACRASQSITNYLSWYQQKPGKAPKLLIYHASTLQSGIPSRFSGSGSGTDFTLTISSLQPDDFATYYCHYGYGTHTFGQGTKLEIKR has what ELISA titer of Fab binding?
3.8 log10 of reciprocal dilution

Origin of the recorded values: patent US20070134256A1
